Please go through the items and note down their Plant response rating, Pigweed.
System: pigweed (Amaranthus retroflexus)
Assay: Test A postemergence
Format: in vivo
Conditions: 125 g ai/ha, postemergence; visual rating after approx. 10 d, 0 to 100 scale (0 no effect, 100 complete control)
# respond with the number and nothing more

Value of measured Plant response rating, Pigweed for the entry Cc1cccc(C2CN(C)C(=O)C2C(=O)Nc2cccc(F)c2F)c1 (stereo not shown) [Compound 667] : 0

Value of measured Plant response rating, Pigweed for the entry CN1CC(c2ccc(F)c(C(F)(F)F)c2)C(C(=O)Nc2cccc(F)c2F)C1=O (stereo not shown) [Compound 613] : 50

Value of measured Plant response rating, Pigweed for the entry COc1cccc(NC(=O)C2C(=O)NCC2c2cccc(C(F)(F)F)c2)c1F (racemic) [Compound 674] : 0

Value of measured Plant response rating, Pigweed for the entry CN1CC(c2ccc(C(F)(F)F)cc2)C(C(=O)Nc2ccccc2S(C)(=O)=O)C1=O (stereo not shown) [Compound 624] : 20

---

Tested on: sedge, umbrella (small-flower umbrella sedge, Cyperus difformis)
Test: Test B flooded paddy test
Type: in vivo
Settings: Flood, 500 g ai/ha; 0 to 100 scale where 0 is no effect and 100 is complete control; 13 to 15 d
Please go through the items and note down their Plant response rating, Sedge, Umbrella.
# respond with the number and nothing more

Value of measured Plant response rating, Sedge, Umbrella for the entry O=C1NCC(c2ccc(F)c(F)c2)C1C(=O)Nc1ccc(F)cc1Cl (stereo not drawn) : 0

Value of measured Plant response rating, Sedge, Umbrella for the entry O=C1NCC(c2cccc(OCC(F)F)c2)C1C(=O)Nc1ccccc1F (racemic) : 0

Value of measured Plant response rating, Sedge, Umbrella for the entry COc1c(F)ccc(NC(=O)C2C(=O)NCC2c2ccc(F)c(F)c2)c1F (stereo not drawn) : 0

---

Tested on: ryegrass, Italian (Italian ryegrass, Lolium multiflorum)
Experiment: Test C preemergence
Format: in vivo
Conditions: 250 g ai/ha, scale 0 to 100, 0 no effect, 100 complete control
Please go through the items and note down their Plant response rating, Ryegrass, Italian.

Value of measured Plant response rating, Ryegrass, Italian for the entry CN1C[C@H](c2ccc(F)c(F)c2)[C@@H](C(=O)Nc2cccc(F)c2F)C1=O : 70

Value of measured Plant response rating, Ryegrass, Italian for the entry CN1CC(c2cccc(C(F)(F)F)c2)C(C(=O)Nc2cccc(F)c2F)C1=O (stereo not shown) : 90

Value of measured Plant response rating, Ryegrass, Italian for the entry CN1CC(c2ccc(C(F)(F)F)c(F)c2)C(C(=O)Nc2ccccc2S(C)(=O)=O)C1=O (stereo not shown) : 60

Value of measured Plant response rating, Ryegrass, Italian for the entry Cc1ccc(C2CN(C)C(=O)C2C(=O)Nc2cccc(F)c2F)cc1 (stereo not shown) : 95

Value of measured Plant response rating, Ryegrass, Italian for the entry CN1CC(c2ccc(F)c(C(F)(F)F)c2)C(C(=O)Nc2cccc(F)c2F)C1=O (stereo not shown) : 95

Value of measured Plant response rating, Ryegrass, Italian for the entry CN1CC(c2cccc(OC(F)(F)C(F)F)c2)C(C(=O)Nc2ccc(F)cc2F)C1=O (stereo not shown) : 45

Value of measured Plant response rating, Ryegrass, Italian for the entry O=C1NCC(c2cccc(OC(F)(F)C(F)F)c2)C1C(=O)Nc1ccccc1F (racemic) : 30

---

System: wheat (Triticum aestivum)
Assay: Test A postemergence
Format: in vivo
Details: 125 g ai/ha, postemergence; visual rating after approx. 10 d, 0 to 100 scale (0 no effect, 100 complete control)
Please go through the items and note down their Plant response rating, Wheat.
# respond with the number and nothing more

Value of measured Plant response rating, Wheat for the entry CN1CC(c2ccc(C(F)(F)F)cc2)C(C(=O)Nc2ccccc2S(C)(=O)=O)C1=O (stereo not shown) [Compound 624] : 20

Value of measured Plant response rating, Wheat for the entry CN1CC(c2ccc(F)c(C(F)(F)F)c2)C(C(=O)Nc2cccc(F)c2F)C1=O (stereo not shown) [Compound 613] : 40

Value of measured Plant response rating, Wheat for the entry CC(C)Oc1cccc(C2CN(C)C(=O)C2C(=O)Nc2ccccc2F)c1 (stereo not shown) [Compound 650] : 30

Value of measured Plant response rating, Wheat for the entry CN1CC(c2cccc(C(F)(F)F)c2)C(C(=O)Nc2cccc(F)c2F)C1=O (stereo not shown) [Compound 636] : 60

---

Please go through the items and note down their pest or weed control at 250 g/ha.
Test system: barnyardgrass (Echinochloa crus-galli)
Assay: Test G Pre-Emergence Protocol
Assay type: in vivo
Details: Echinochloa crus-galli, pre-emergence, 312 h, 250 g ai/ha, evaluated after 13 days, read-out: Barnyardgrass damage rating (100=total damage to plant; 0=no damage to plant)
State just the number; it will be interpreted in %.

Value of measured pest or weed control at 250 g/ha for the entry COc1ccc(CNC(=O)[C@H]2C(=O)N(C)C[C@@H]2c2ccc(C(F)(F)F)cc2)c(OC)c1 (racemic) [Compound 1479] : 10

Value of measured pest or weed control at 250 g/ha for the entry CN1C[C@H](c2ccc(F)c(F)c2)[C@@H](C(=O)Nc2cnccc2C(F)(F)F)C1=O (racemic) [Compound 1740] : 40

Value of measured pest or weed control at 250 g/ha for the entry Cc1nc(C(F)(F)F)ccc1NC(=O)[C@@H]1C(=O)N(C)C[C@H]1c1ccc(C(F)(F)F)cc1 (racemic) [Compound 1566] : 0

Value of measured pest or weed control at 250 g/ha for the entry CN1C[C@@H](c2ccc(C(F)(F)F)cc2)[C@H](C(=O)Nc2ccc(F)cc2C(F)(F)F)C1=O (racemic) [Compound 1616] : 60

Value of measured pest or weed control at 250 g/ha for the entry CN1C[C@@H](c2ccc(C(F)(F)F)cc2)[C@H](C(=O)Nc2nnc[nH]2)C1=O (racemic) [Compound 1562] : 20

Value of measured pest or weed control at 250 g/ha for the entry CCOc1cc([C@@H]2CN(C)C(=O)[C@H]2C(=O)Nc2cccc(F)c2C)ccc1C(F)(F)F (racemic) [Compound 1787] : 90

Value of measured pest or weed control at 250 g/ha for the entry CCOc1ccc(C2CN(C)C(=O)C2C(=O)Nc2cccc(F)c2F)cc1F (stereo not shown) [Compound 1717] : 90

Value of measured pest or weed control at 250 g/ha for the entry COc1cc(C2CN(C)C(=O)C2C(=O)Nc2cccc(F)c2F)cc(F)c1F (stereo not shown) [Compound 1706] : 80

Value of measured pest or weed control at 250 g/ha for the entry CN1C[C@@H](c2ccc(C(F)(F)F)cc2)[C@H](C(=O)Nc2n[nH]c(C(F)(F)F)n2)C1=O (racemic) [Compound 1540] : 0

Value of measured pest or weed control at 250 g/ha for the entry Cc1onc(NC(=O)[C@@H]2C(=O)N(C)C[C@H]2c2ccc(C(F)(F)F)cc2)c1Cl (racemic) [Compound 1580] : 0

Value of measured pest or weed control at 250 g/ha for the entry Cc1nc(F)ccc1NC(=O)[C@@H]1C(=O)N(C)C[C@H]1c1ccc(C(F)(F)F)cc1 (racemic) [Compound 1654] : 80

Value of measured pest or weed control at 250 g/ha for the entry CN1C[C@H](c2ccc(C(F)(F)F)cc2)[C@@H](C(=O)Nc2ccc(F)c(Cl)c2)C1=O (racemic) [Compound 1434] : 20

Value of measured pest or weed control at 250 g/ha for the entry CCc1nc(NC(=O)[C@@H]2C(=O)N(C)C[C@H]2c2ccc(C(F)(F)F)cc2)n[nH]1 (racemic) [Compound 1610] : 0

Value of measured pest or weed control at 250 g/ha for the entry Cc1cc(NC(=O)[C@@H]2C(=O)N(C)C[C@H]2c2ccc(C(F)(F)F)cc2)ccc1F (racemic) [Compound 1593] : 20

Value of measured pest or weed control at 250 g/ha for the entry Cc1c(F)cccc1NC(=O)[C@@H]1C(=O)N(C)C[C@H]1c1cccc(OCC2CC2)c1 (racemic) [Compound 1766] : 80

Value of measured pest or weed control at 250 g/ha for the entry Cc1cc([C@@H]2CN(C)C(=O)[C@H]2C(=O)Nc2cccc(F)c2F)cc(Cl)n1 (racemic) [Compound 1481] : 80

Value of measured pest or weed control at 250 g/ha for the entry CN1C[C@@H](c2ccc(C(F)(F)F)cc2)[C@H](C(=O)Nc2cc(F)ncn2)C1=O (racemic) [Compound 1509] : 0

Value of measured pest or weed control at 250 g/ha for the entry COc1nccc(NC(=O)[C@@H]2C(=O)N(C)C[C@H]2c2ccc(C(F)(F)F)cc2)n1 (racemic) [Compound 1640] : 0

Value of measured pest or weed control at 250 g/ha for the entry C=C(C)c1ccccc1NC(=O)[C@H]1C(=O)N(C)C[C@@H]1c1ccc(C(F)(F)F)cc1 (racemic) [Compound 1449] : 30

Value of measured pest or weed control at 250 g/ha for the entry CN1C[C@H](c2ccc3c(c2)CCCC3)[C@@H](C(=O)Nc2cccc(F)c2F)C1=O (racemic) [Compound 1496] : 80

Value of measured pest or weed control at 250 g/ha for the entry CN1C[C@@H](c2ccc(C(F)(F)F)cc2)[C@H](C(=O)Nc2ccnnc2)C1=O (racemic) [Compound 1518] : 0

Value of measured pest or weed control at 250 g/ha for the entry COC(=O)c1cc([C@H]2CN(C)C(=O)[C@@H]2C(=O)Nc2ccccc2F)ccc1Cl (racemic) [Compound 1460] : 90

Value of measured pest or weed control at 250 g/ha for the entry COc1cc(C2CN(C)C(=O)C2C(=O)Nc2cccc(F)c2F)cc(C)c1C (stereo not shown) [Compound 1713] : 90

Value of measured pest or weed control at 250 g/ha for the entry CCOc1ccc([C@@H]2CN(C)C(=O)[C@H]2C(=O)Nc2cccc(F)c2C)cc1Cl (racemic) [Compound 1803] : 90

Value of measured pest or weed control at 250 g/ha for the entry Cc1c(F)cccc1NC(=O)[C@@H]1C(=O)N(C)C[C@H]1c1cc(Cl)c(F)c(Cl)c1 (racemic) [Compound 1792] : 80

Value of measured pest or weed control at 250 g/ha for the entry CC(C)Oc1cc(F)cc(C2CN(C)C(=O)C2C(=O)Nc2cccc(F)c2F)c1 (stereo not shown) [Compound 1724] : 90

Value of measured pest or weed control at 250 g/ha for the entry Cc1cc([C@H]2CN(C)C(=O)[C@@H]2C(=O)Nc2ccc(F)c(F)c2F)cnn1 (racemic) [Compound 1663] : 0

Value of measured pest or weed control at 250 g/ha for the entry CN1C[C@@H](c2ccc(C(F)(F)F)cc2)[C@H](C(=O)Nc2cc(F)c(F)c(F)c2F)C1=O (racemic) [Compound 1625] : 40
